Test: Metabolic stability in beagle dog hepatocytes
Type: in vitro ADME
Details: read-out: Clint ± SEM
Assignment: determine reported hepatocyte CLint at 0.1 μM for the given compounds.

Exercise: Using the record for COC(=O)N[C@H](C(=O)N[C@@H](Cc1ccccc1)[C@@H](O)CN(Cc1ccc(-c2ccccn2)cc1)NC(=O)[C@@H](NC(=O)OC)C(C)(C)C)C(C)(C)C [Atazanavir, reference compound] , report its hepatocyte CLint at 0.1 μM.
Key: 1.83 µL/min/1e6 cells

Exercise: Look up hepatocyte CLint at 0.1 μM for this compound: COCCOCCOCCOC(=O)NC(C(=O)NC(Cc1ccccc1)C(O)CN(Cc1ccc(-c2ccccn2)cc1)NC(=O)C(NC(=O)OC)C(C)(C)C)C(C)(C)C (centres unmarked)
Key: 16.1 µL/min/1e6 cells
